Values compiled from PubChem BioAssay AID492948.

# protocol_details: qHTS Assay for Agonists of the Relaxin Receptor RXFP1: V1B Hit Validation
# assay_conditions: HEK293 V1B cells, cAMP TR-FRET, 30 min; series mostly up to 115 µM
Results filed as inconclusive are left out. Calls of active or inactive are those of the source. Calls follow the shape of the dose curve; as a rule, active = well fitted activation curve with a large enough effect; inconclusive = small, poorly fitted or top-dose-only effect; inactive = no such curve, though single readings can be large or run the other way.
Use one of these outcomes when replying: Yes (active), No (inactive)

Here are 9 molecules together with their reported answers.
[[record]]
molecule = "COC(=O)c1nc2ccc(N3CCOCC3)cc2c(C)c1C(=O)OC"
assigned_class = "Yes"

[[record]]
molecule = "CCN(CC)CCCCCC(=O)Nc1ccccc1C(=O)Nc1ccccc1"
assigned_class = "No"

[[record]]
molecule = "CCN(CC)S(=O)(=O)c1ccc2c(c1)nc(SCc1nc3ccsc3c(=O)[nH]1)n2CC"
assigned_class = "Yes"

[[record]]
molecule = "CCCC(=O)Nc1ncnc2c1ncn2[C@@H]1O[C@@H]2OP(=O)(O)OC[C@H]2[C@H]1OC(=O)CCC"
assigned_class = "Yes"

[[record]]
molecule = "c1ccc(-c2nnc(-c3ccccn3)c(-c3ccccn3)n2)nc1"
assigned_class = "No"

[[record]]
molecule = "CCOC(=O)CNC(=O)CSc1nc2c(C)cccc2cc1CC"
assigned_class = "Yes"

[[record]]
molecule = "CC(NC(=O)c1ccccc1NC(=O)c1ccco1)C(=O)O (stereo not given)"
assigned_class = "No"

[[record]]
molecule = "CCCn1c(SCC(=O)Nc2ccc(NC(C)=O)cc2)nc2c1c(=O)n(C)c(=O)n2C"
assigned_class = "Yes"

[[record]]
molecule = "Nc1ncnc2c1ncn2[C@@H]1O[C@H](COS(=O)(=O)O)[C@@H](O)[C@H]1O"
assigned_class = "Yes"


Okay, now this molecule:
Hi, do you know how O=C(O)c1ccc(CN2C(=O)c3ccc(C(=O)O)cc3C2=O)cc1 came out in this test?
No

---

# protocol_details: qHTS Assay for Agonists of the Relaxin Receptor RXFP1: V1B Hit Validation;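 also: counter-screen in HEK293 cells expressing V1B rather than RXFP1 for selectivity; nearly all actives have a fitted effect of over 65% in size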;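 as to activation: cAMP accumulation with PDE4 inhibitor Ro 20-1724 present during compound exposure; 0% = buffer alone basal and 100% = 29 nM porcine relaxin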
# assay_conditions: HEK293 V1B cells, cAMP TR-FRET, 30 min; series mostly up to 115 µM
Results filed as inconclusive are left out. Active and inactive are the calls of the source. Calls come from the whole dose curve; as a rule, active = well fitted activation curve with a large enough effect; inconclusive = small, poorly fitted or top-dose-only effect; inactive = no such curve, though single readings can be large or run the other way.
Use one of these outcomes when replying: label 1 = active, label 0 = inactive

Hi, do you know how COc1ccc(CN2C(=O)c3cccnc3C2=O)cc1S(=O)(=O)NC1CCCCC1 came out in this test?
label 1

Further, for Cc1cc(C)n2nc(C(=O)Nc3ccc4c(c3)OCCO4)nc2n1 ?
label 1

Further, for COc1ccc(CNC(=O)CN2C(=O)NC(C)(c3cccc(Br)c3)C2=O)cc1 (stereo unspecified) ?
label 0

---

# protocol_details: qHTS Assay for Agonists of the Relaxin Receptor RXFP1: V1B Hit Validation;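 also: counter-screen in HEK293 cells expressing V1B rather than RXFP1 for selectivity; nearly all actives have a fitted effect of over 65% in size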;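 as to activation: cAMP accumulation with PDE4 inhibitor Ro 20-1724 present during compound exposure; 0% = buffer alone basal and 100% = 29 nM porcine relaxin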
# assay_conditions: HEK293 V1B cells, cAMP TR-FRET, 30 min; series mostly up to 115 µM
# Description: NIH Chemical Genomics Center [NCGC] NIH Molecular Libraries Probe Production Centers Network [MLPCN] Assay Submitter (PI): Alexander Agoulnik The relaxin hormone is involved in the variety of biological functions in normal tissues and diseases. […] This is a cell-based assay for cAMP second messenger response to screen for agonists of the RXFP2 receptor. […] The cells were lysed and the cAMP levels were measured with a TR-FRET cAMP kit. […]
Inconclusive results are not listed. The source made the active and inactive calls. Calls come from the whole dose curve; as a rule, active = well fitted activation curve with a large enough effect; inconclusive = small, poorly fitted or top-dose-only effect; inactive = no such curve, though single readings can be large or run the other way.
Use one of these outcomes when replying: t for active, f for inactive

Here are 5 molecules together with their reported answers.
[[record]]
smiles_data = "Cc1cc(Br)c2nc3c(c(C(=O)O)c2c1)CCCCC3"
assigned_class = "t"

[[record]]
smiles_data = "COc1ccc(S(=O)(=O)Nc2ccccn2)c(C)c1C"
assigned_class = "f"

[[record]]
smiles_data = "CN(CC(=O)Nc1ccccc1Cl)C(=O)COC(=O)Cc1c(F)cccc1Cl"
assigned_class = "f"

[[record]]
smiles_data = "COc1ccc(NC(=O)CCCc2nnc3n(C)c(=O)c4sccc4n23)cc1"
assigned_class = "t"

[[record]]
smiles_data = "O=C(O)c1cc(-c2ccco2)nc2ccc(Br)cc12"
assigned_class = "t"


Hi, do you know how CC(C)(C)C(=O)Nc1ccccc1C(=O)NCc1ccco1 came out in this test?
f

Further, for Cc1cccc(NC(=O)c2ccccc2NC(=O)C2CCCCC2)c1C ?
f

Further, for O=C(O)CCSc1ccc2ccccc2n1 ?
t

Further, for CCCN(CCC)S(=O)(=O)c1cc(CN2C(=O)c3cccnc3C2=O)ccc1OC ?
t

Further, for O=c1c2ccccc2cnn1Cc1n[nH]c(=S)n1-c1ccc(F)c(Cl)c1 ?
t

Further, for COC(=O)Cn1cnc2c(C#N)c3n(c2c1=O)CCCC3 ?
t

---

# protocol_details: qHTS Assay for Agonists of the Relaxin Receptor RXFP1: V1B Hit Validation;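 also: counter-screen in HEK293 cells expressing V1B rather than RXFP1 for selectivity; nearly all actives have a fitted effect of over 65% in size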;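 as to activation: cAMP accumulation with PDE4 inhibitor Ro 20-1724 present during compound exposure; 0% = buffer alone basal and 100% = 29 nM porcine relaxin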
# assay_conditions: HEK293 V1B cells, cAMP TR-FRET, 30 min; series mostly up to 115 µM
Inconclusive results are not listed. Active and inactive are the calls of the source. Calls follow the shape of the dose curve; as a rule, active = well fitted activation curve with a large enough effect; inconclusive = small, poorly fitted or top-dose-only effect; inactive = no such curve, though single readings can be large or run the other way.
Use one of these outcomes when replying: active, inactive

Here are 3 compounds together with their reported answers.
[[record]]
compound = "Cc1cccc(C(=O)Nc2ccccc2C(=O)NCc2ccco2)c1"
assigned_class = "inactive"

[[record]]
compound = "Cc1cccc(-c2nnc(SCC(=O)NC3CC3)n2C)c1"
assigned_class = "inactive"

[[record]]
compound = "O=C(Nc1ccccc1C(=O)N1CCNCC1)c1ccco1"
assigned_class = "inactive"


Hi, do you know how COc1ccc(OC)c(CNC(=O)C2CCN(C(=O)N(C)C)CC2)c1 came out in this test?
inactive

Further, for NC(=O)c1ccccc1NC(=O)CC12CC3CC(CC(C3)C1)C2 ?
inactive

Further, for Cc1cccn2c(=O)c(/C=C3\SC(=S)NC3=O)c(NCCCN3CCOCC3)nc12 ?
active

Further, for CCc1ccc(-c2nc3ccc(Br)cc3c(C(=O)O)c2C)s1 ?
active

Further, for CN(C)c1ccc(NC(=O)C2C3C=CC(C3)C2C(=O)O)cc1 (stereo unspecified) ?
inactive

---

# protocol_details: qHTS Assay for Agonists of the Relaxin Receptor RXFP1: V1B Hit Validation;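 also: counter-screen in HEK293 cells expressing V1B rather than RXFP1 for selectivity; nearly all actives have a fitted effect of over 65% in size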;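 as to activation: cAMP accumulation with PDE4 inhibitor Ro 20-1724 present during compound exposure; 0% = buffer alone basal and 100% = 29 nM porcine relaxin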
# assay_conditions: HEK293 V1B cells, cAMP TR-FRET, 30 min; series mostly up to 115 µM
Inconclusive results are not listed. Activity calls are given as the source filed them. The call rests on the fitted dose curve; in most records, active means well fitted activation curve with a large enough effect; inconclusive means small, poorly fitted or top-dose-only effect; inactive means no such curve, though single readings can be large or run the other way.
Use one of these outcomes when replying: active, inactive

Here are 5 compounds together with their reported answers.
[[record]]
compound = "Cn1c(=O)c2sccc2n2c(CCCC(=O)NCc3cccnc3)nnc12"
assigned_class = "active"

[[record]]
compound = "CCC(Sc1ccc2nnc(-c3cccnc3)n2n1)C(=O)OC (stereo not drawn)"
assigned_class = "active"

[[record]]
compound = "O=C(O)c1ccc(N2C(=O)c3cccc4cccc(c34)C2=O)cc1"
assigned_class = "active"

[[record]]
compound = "COc1ccc(CN2C(=O)c3cccnc3C2=O)cc1S(=O)(=O)N1CCCCC1C (stereo not drawn)"
assigned_class = "active"

[[record]]
compound = "Cc1ccc(CN(C)C(=O)c2ccc3c(c2)NC(=O)CS3)o1"
assigned_class = "inactive"


Hi, do you know how O=C(Nc1ccccc1C(=O)NCCc1ccc(O)cc1)c1ccco1 came out in this test?
inactive

Further, for CN(C)CCCn1c(SCC(=O)Nc2nc(-c3cccc(Br)c3)cs2)nc2ccccc2c1=O ?
inactive

Further, for C=CCNc1ncnc2c1ncn2C1OC(CO)C(O)C1O (stereo not drawn) ?
inactive

Further, for CC(=O)Nc1ccc(S(=O)(=O)NCc2cc(=O)n(C)c(=O)n2C)cc1 ?
active

Further, for CC1(C)Cc2nc3sc4c(SCC(=O)NC(c5ccccc5)c5ccccc5)ncnc4c3cc2CO1 ?
active

Further, for CN(Cc1ccccc1)C(=O)c1ccccc1NC(=O)c1ccco1 ?
inactive

Further, for S=c1nc[nH]c2c1[nH]c1ccccc12 ?
active

Further, for COc1ccc(-n2nnc3c(=O)n(CC(=O)NCC4CCCO4)cnc32)cc1 (stereo not drawn) ?
active

Further, for Cn1c2ccccc2c2nnc(SCC(=O)Nc3cccc(C(=O)O)c3)nc21 ?
active

Further, for CCC(=O)Nc1ccc(-n2nnnc2SCC(=O)NNC(=O)c2ccco2)cc1 ?
inactive

Further, for Cc1ccnc(NS(=O)(=O)c2ccc(N3C(=O)c4ccccc4C3=O)cc2)n1 ?
active

Further, for COC(=O)c1sc(N2C(=O)C(O)=C(C(=O)c3ccc(C)o3)C2c2ccc(F)cc2)nc1C (stereo not drawn) ?
active

Further, for Cc1cc2nc3ccc(=[N+](C)C)cc-3sc2cc1N ?
inactive

Further, for COc1ccc(S(=O)(=O)N2CCOCC2)cc1NC(=O)CSc1nnc2ccccn12 ?
active

Further, for COc1cccc(CNC(=O)c2ccc(CS(=O)Cc3ccc(C)cc3)o2)c1 (stereo not drawn) ?
inactive

Further, for O=C(Oc1ccccc1)Oc1ccc2c(c1)oc(=O)c1ccccc12 ?
active

Further, for CCN(c1ccccc1)S(=O)(=O)c1ccc(OC)c(NC(=O)C2CC(=O)N(Cc3ccccc3)C2)c1 (stereo not drawn) ?
inactive

Further, for Cc1ccccc1NC(=O)c1ccccc1NC(=O)c1ccco1 ?
inactive
